Tested on: DIV30
Assay: qHTS profiling for inhibitors of Plasmodium falciparum proliferation (AID 504749); further: nearly all actives have a fitted effect of over 60% in size; further: potency means the concentration at half of the fitted maximal effect
Conditions: P. falciparum in erythrocytes, SYBR Green DNA, 72 h; series mostly up to 28.7 µM
Records with an inconclusive call do not appear. The source made the active and inactive calls. The call rests on the fitted dose curve; in most records, active means well fitted inhibition curve with a large enough effect; inconclusive means small, poorly fitted or top-dose-only effect; inactive means flat fitted curve, though single readings scatter.
measuredEndpoint: Potency

{"compound": "N#C/C(=C1/SCC(c2ccccc2Cl)S1)n1ccnc1 (stereo not given)", "measuredEndpoint": "Potency", "observedResult": "inactive"}
{"compound": "CCC(=O)OC1C(N(C)C)CC(C)O[C@H]1O[C@H]1[C@H](C)[C@@H](O[C@H]2CC(OC)[C@@H](O)C(C)O2)[C@H](C)C(=O)O[C@@H](CC)[C@](C)(O)[C@@H](O)[C@H](C)C(=O)[C@@H](C)C[C@]1(C)O (stereo not given in full)", "measuredEndpoint": "Potency", "observedResult": "inactive"}
{"compound": "CC(=O)OCC(=O)[C@@]1(O)CCC2C3C[C@H](C)C4=CC(=O)C=CC4(C)C3C(O)CC21C (stereo not given in full)", "measuredEndpoint": "Potency", "observedResult": "inactive"}
{"compound": "CC(C)(C)NC[C@H](O)CSc1nc(-c2ccc(C(N)=O)s2)cs1", "measuredEndpoint": "Potency", "observedResult": "inactive"}
{"compound": "CC1CN(c2c(F)c(N)c3c(=O)c(C(=O)O)cn(C4CC4)c3c2F)CC(C)N1 (stereo not given)", "measuredEndpoint": "Potency", "observedResult": "inactive"}
{"compound": "CCCCC/C(C=O)=C/c1ccccc1", "measuredEndpoint": "Potency", "observedResult": "inactive"}
{"compound": "C=C(CC[C@@H](C)[C@H]1CCC2[C@]1(C)CC[C@]13C[C@@]14CCC(OC(=O)/C=C/c1ccc(O)c(OC)c1)C(C)(C)[C@@H]4CC[C@@]23C)C(C)C (stereo not given in full)", "measuredEndpoint": "Potency", "observedResult": "inactive"}
{"compound": "C[C@]12CC[C@@H]3c4ccc(O)cc4CC[C@H]3[C@@H]1C[C@H](O)C2O (stereo not given in full)", "measuredEndpoint": "Potency", "observedResult": "inactive"}
{"compound": "NC(CSSCC(N)C(=O)O)C(=O)O (stereo not given)", "measuredEndpoint": "Potency", "observedResult": "inactive"}
{"compound": "CC[C@@H]1/C=C(\\C)C[C@H](C)C[C@H](OC)[C@H]2O[C@@](O)(C(=O)C(=O)N3CCCC[C@H]3C(=O)O[C@H](/C(C)=C/[C@@H]3CC[C@H](Cl)[C@H](OC)C3)[C@H](C)[C@@H](O)CC1=O)[C@H](C)C[C@@H]2OC", "measuredEndpoint": "Potency", "observedResult": "inactive"}
{"compound": "O=C(O)[C@H]1C[C@@H](CP(=O)(O)O)CCN1", "measuredEndpoint": "Potency", "observedResult": "inactive"}
{"compound": "CC[C@@H](C)C(N)C(=O)O (stereo not given in full)", "measuredEndpoint": "Potency", "observedResult": "inactive"}
{"compound": "COC(c1ccccc1)(c1ccccc1)C(Oc1nc(C)cc(C)n1)C(=O)O (stereo not given)", "measuredEndpoint": "Potency", "observedResult": "inactive"}
{"compound": "NC(=O)OC[C@@H]1[C@H](NC(=O)/C(=N/OCC(=O)O)c2csc(N)n2)C(=O)N1S(=O)(=O)O", "measuredEndpoint": "Potency", "observedResult": "inactive"}
{"compound": "C[C@@H]1CC2C3CCC4=CC(=O)C=C[C@]4(C)[C@@]3(F)[C@@H](O)C[C@]2(C)[C@@]1(O)C(=O)COC(=O)c1cccc(S(=O)(=O)O)c1 (stereo not given in full)", "measuredEndpoint": "Potency", "observedResult": "inactive"}
{"compound": "CCOC(=O)C(CCc1ccccc1)NC(C)C(=O)N1Cc2cc(OC)c(OC)cc2CC1C(=O)O (stereo not given)", "measuredEndpoint": "Potency", "observedResult": "7.57 µM (active)"}
{"compound": "CC(=O)N1CC(O)CC1C(=O)O (stereo not given)", "measuredEndpoint": "Potency", "observedResult": "inactive"}
{"compound": "O=C(NC(CO)C(O)c1ccc([N+](=O)[O-])cc1)C(Cl)Cl (stereo not given)", "measuredEndpoint": "Potency", "observedResult": "inactive"}
{"compound": "O=C(O)Cc1sc(-c2ccc(Cl)cc2)nc1-c1ccccc1", "measuredEndpoint": "Potency", "observedResult": "inactive"}
{"compound": "NC(C(=O)O)c1ccc(O)cc1 (stereo not given)", "measuredEndpoint": "Potency", "observedResult": "inactive"}
{"compound": "C[S+](C)CC[C@H](N)C(=O)O", "measuredEndpoint": "Potency", "observedResult": "inactive"}
{"compound": "CCN(CC)C(=O)Nc1ccc(OC[C@H](O)CNC(C)(C)C)c(C(C)=O)c1", "measuredEndpoint": "Potency", "observedResult": "inactive"}
{"compound": "O=c1ccn(C2OC(COP(=O)(O)OC3C(CO)OC(n4ccc(=O)[nH]c4=O)C3O)C(O)C2O)c(=O)[nH]1 (stereo not given)", "measuredEndpoint": "Potency", "observedResult": "inactive"}
{"compound": "Cc1ccccc1N1C(=O)c2cc(N)ccc2N/C1=C\\F", "measuredEndpoint": "Potency", "observedResult": "inactive"}
{"compound": "CC(=O)NC[C@@H]1CN(c2ccc(N3CCOCC3)c(F)c2)C(=O)O1", "measuredEndpoint": "Potency", "observedResult": "inactive"}
{"compound": "CO/N=C(/C(=O)N[C@@H]1C(=O)N2C(C(=O)O)=C(CSc3nnnn3C)CS[C@H]12)c1csc(N)n1", "measuredEndpoint": "Potency", "observedResult": "inactive"}
{"compound": "CCN1CCN(C(=O)NC(C(=O)NC2C(=O)N3C(C(=O)O)=C(CSc4nnnn4C)CSC23)c2ccc(O)cc2)C(=O)C1=O (stereo not given)", "measuredEndpoint": "Potency", "observedResult": "inactive"}
{"compound": "COc1cccc2c1C(=O)c1c(O)c3c(c(O)c1C2=O)C[C@@](O)(C(=O)CO)C[C@@H]3OC1CC(N)C(O)C(C)O1 (stereo not given in full)", "measuredEndpoint": "Potency", "observedResult": "4.26 µM (active)"}
{"compound": "C=CCn1c(=O)n(C2OC(CO)C(O)C2O)c2nc(N)[nH]c(=O)c21 (stereo not given)", "measuredEndpoint": "Potency", "observedResult": "inactive"}
{"compound": "CC(=O)N[C@H]1[C@H](O[C@@H]2c3ccc(c(Cl)c3)Oc3cc4cc(c3O[C@@H]3O[C@H](CO)[C@@H](O)[C@H](O)C3C)Oc3ccc(cc3Cl)C[C@H]3NC(=O)[C@@H](N)c5ccc(O)c(c5)Oc5cc(O)cc(c5)[C@H](NC3=O)C(=O)N[C@H]4C(=O)N[C@H]3C(=O)N[C@@H]2C(=O)N[C@@H](C(=O)O)c2cc(O)cc(O[C@H]4O[C@H](CO)[C@@H](O)C(O)[C@@H]4O)c2-c2cc3ccc2O)O[C@H](CO)[C@@H](O)[C@@H]1O (stereo not given in full)", "measuredEndpoint": "Potency", "observedResult": "inactive"}

Data credit: PubChem BioAssay (NCATS)
